Values were extracted from patent US6620828B2.

Assay system: FL-CHK1 (Homo sapiens)
Construct: C-terminally His-tagged full-length human CHK1 (FL-CHK1); 6xHis (C); made in house; host or cells: baculovirus/insect cells
Protocol notes: CHK1 assay
Format: biochemical
Test conditions: 20 μM; combinatorial library compounds
Provide the reported inhibition at 20 µM of each item.
Form entry: enter the amount, then its unit.

Answered cases to consult:
# Compound, inhibition at 20 µM
data = [
    ("Nc1nc(Nc2ccc(S(N)(=O)=O)cc2)sc1-c1nc(-c2cccc(OC(=O)c3ccccc3)c2)cs1", "6.8%"),
    ("CC(C)c1ccc(Nc2nc(N)c(-c3nc(-c4ccc(CC(=O)O)s4)cs3)s2)cc1", "13%"),
    ("CCc1cc2c(cc1-c1csc(-c3sc(Nc4ccc(S(N)(=O)=O)cc4)nc3N)n1)C(C)(C)CCC2(C)C", "1.3%"),
]

For every record below, what is its inhibition at 20 µM?
1. CN(C)c1ccc(Nc2nc(N)c(-c3nc(-c4cccc(Br)c4)cs3)s2)cc1
2. CN(C)c1ccc(Nc2nc(N)c(-c3nc(-c4cccc(OC(=O)c5ccccc5)c4)cs3)s2)cc1
3. CC(C)c1ccc(Nc2nc(N)c(-c3nc(-c4cccc(OC(=O)c5ccccc5)c4)cs3)s2)cc1
4. CC(=O)Oc1ccccc1-c1csc(-c2sc(Nc3ccc(S(N)(=O)=O)cc3)nc2N)n1
5. CC(C)c1ccc(Nc2nc(N)c(-c3nc(-c4cc(Br)c(Cl)s4)cs3)s2)cc1
6. N#Cc1ccc(-c2nc(-c3sc(Nc4ccc(S(N)(=O)=O)cc4)nc3N)cs2)cc1

14.2%
23.3%
8.8%
-7.3%
9.2%
3.7%

For every record below, what is its inhibition at 20 µM?
1. CC(=O)Oc1ccccc1-c1csc(-c2sc(Nc3ccc(C(C)C)cc3)nc2N)n1
2. CC(C)c1ccc(Nc2nc(N)c(-c3nc(-c4ccc(-c5ccc(Cl)cc5Cl)o4)cs3)s2)cc1
3. CC(C)c1ccc(Nc2nc(N)c(-c3nc(-c4ccc(O)cc4)cs3)s2)cc1
4. CC(C)c1ccc(Nc2nc(N)c(-c3nc(-c4cc(C(C)(C)C)c(O)c(C(C)(C)C)c4)cs3)s2)cc1
5. CN(C)c1ccc(Nc2nc(N)c(-c3nc(-c4ccc(F)cc4F)cs3)s2)cc1
6. Nc1nc(Nc2ccc(S(N)(=O)=O)cc2)sc1-c1nc(-c2cc(-c3ccc(Cl)c(Cl)c3)no2)cs1

1: -12.8%; 2: -7.9%; 3: 25%; 4: 7.9%; 5: 25.2%; 6: 0.5%

For every record below, what is its inhibition at 20 µM?
1. Nc1nc(Nc2ccc(S(N)(=O)=O)cc2)sc1-c1nc(-c2ccc(F)cc2)cs1 [drawing 409]
2. COc1cc(OC)c(-c2csc(-c3sc(Nc4ccc(S(N)(=O)=O)cc4)nc3N)n2)c(O)c1Cl
3. CCOC(=O)c1cc(-c2csc(-c3sc(Nc4ccc(N(C)C)cc4)nc3N)n2)on1
4. CC(C)c1ccc(Nc2nc(N)c(-c3nc(-c4ccc[nH]4)cs3)s2)cc1

1. 33.7%
2. 25.6%
3. -4.5%
4. 17.6%

For every record below, what is its inhibition at 20 µM?
1. CC(C)c1ccc(Nc2nc(N)c(-c3nc(-c4c(Cl)cc(C(F)(F)F)cc4Cl)cs3)s2)cc1
2. Nc1nc(Nc2ccc(S(N)(=O)=O)cc2)sc1-c1nc(-c2ccc(CC(=O)O)s2)cs1
3. CN(C)c1ccc(Nc2nc(N)c(-c3nc(-c4ccc(Cl)cc4Cl)cs3)s2)cc1

["14.8%", "11.3%", "26.9%"]

---

Provide the reported CDK2^c of each item.
Assay system: CDK2/Cyclin A complex (Homo sapiens)
Protocol notes: CDK2/Cyclin A assay
Assay type: biochemical
Design: concentration or dose not given beside the values
Test conditions: Table A combinatorial examples; footnote c not given
Give bare numbers.

# Smiles structure, Readout value
rows = [
    ("COc1cc(Nc2nc(N)c(-c3nc(-c4ccc5ccccc5c4)cs3)s2)cc2c1OCCO2", 11.6),
]

For every record below, what is its CDK2^c?
1. COc1cc(Nc2nc(N)c(-c3nc(-c4ccc5oc6ccccc6c5c4)cs3)s2)cc2c1OCCO2
2. COc1cc(Nc2nc(N)c(-c3nc(-c4ccc(-c5ccccc5)cc4)cs3)s2)cc(OC)c1OC

19
20.4

---

Assay system: phosphorylated VEGF-R2Δ50 (FLVK-P) (Homo sapiens, UniProt P35968, DEL940-989/E990V)
Construct: VEGF-R2Δ50 contains residues 806-939 and 990-1171; made in house; host or cells: baculovirus/insect cells
Sequence (P35968 with tags, fused parts or gaps DEL940-989/E990V limits assumed): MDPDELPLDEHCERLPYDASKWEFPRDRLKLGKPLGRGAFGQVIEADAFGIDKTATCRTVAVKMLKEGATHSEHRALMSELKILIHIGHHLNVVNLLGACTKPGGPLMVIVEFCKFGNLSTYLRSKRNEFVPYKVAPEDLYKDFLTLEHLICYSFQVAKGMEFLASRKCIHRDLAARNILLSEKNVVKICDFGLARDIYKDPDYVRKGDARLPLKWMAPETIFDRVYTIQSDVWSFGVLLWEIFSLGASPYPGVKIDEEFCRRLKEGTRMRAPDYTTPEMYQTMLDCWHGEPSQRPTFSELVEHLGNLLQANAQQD
Protocol notes: VEGF-R2 coupled spectrophotometric (FLVK-P) assay
Format: biochemical
Test conditions: Table 1; spectrophotometric assay
Parameter: pKi
Numbers only, as −log10 of the molar value.

Answered cases to consult:
# Smiles structure, Readout value
data = [
    ("Nc1nc(N)c(-c2nc(-c3cccc(NC(=O)c4ccccc4)c3)cs2)s1", 6.41),
    ("Nc1nc(Nc2cccc(C(=O)O)c2)sc1-c1nc(-c2cccc(NC(=O)c3ccccc3)c2)cs1", 8.05),
    ("COc1cc(Nc2nc(N)c(-c3nc(-c4cccc(NC(=O)c5cccc(C)c5)c4)no3)s2)cc(OC)c1OC", 8.96),
    ("COc1cc(Nc2nc(N)c(-c3nc(-c4cccc(NC(=O)c5cccc(C(C)C)c5)c4)cs3)s2)cc(OC)c1OC", 8.74),
    ("COc1cc(Nc2nc(N)c(-c3nc(-c4cccc(NC(=O)c5ccc(F)cc5)c4)cs3)s2)cc(OC)c1OC", 8.22),
]

For every record below, what is its pKi?
1. Nc1nc(Nc2ccc(S(N)(=O)=O)cc2)sc1-c1nc(-c2cccc(NC(=O)OCc3ccccc3)c2)cs1
2. COc1cc(Nc2nc(N)c(-c3nc(-c4cccc(NC(=O)c5sc(C)nc5C)c4)cs3)s2)cc(OC)c1OC
3. Nc1nc(Nc2cccnc2)sc1-c1nc(-c2cccc(NC(=O)c3ccccc3)c2)cs1
4. CC(=O)Nc1nc(N)c(-c2nc(-c3cccc(NC(=O)c4ccccc4)c3)cs2)s1
5. COc1cc(Nc2nc(N)c(-c3nc(-c4cccc(NC(=O)c5ncc(C)s5)c4)cs3)s2)cc(OC)c1OC
6. COc1cc(Nc2nc(N)c(-c3nc(-c4cccc(NC(=O)c5cccc(Cl)n5)c4)cs3)s2)cc(OC)c1OC
7. COc1cc(C(=O)Nc2cccc(-c3csc(-c4sc(Nc5cc(OC)c(OC)c(OC)c5)nc4N)n3)c2)ccc1C

[9.00, 8.42, 7.62, 8.11, 9.47, 8.20, 8.41]

For every record below, what is its pKi?
1. COc1cc(Nc2nc(N)c(-c3nc(-c4cccc(NC(=O)OC(C)(C)C)c4)no3)s2)cc(OC)c1OC
2. COc1cc(Nc2nc(N)c(-c3nc(-c4cccc(NC(=O)c5cc(Cl)ccn5)c4)cs3)s2)cc(OC)c1OC
3. COc1cc(Nc2nc(N)c(-c3nc(-c4cccc(NC(=O)OC(C)(C)C)c4)cs3)s2)cc(OC)c1OC
4. Nc1nc(Nc2ccc3c(c2)OCCO3)sc1-c1nc(-c2cccc(NC(=O)c3ccccc3)c2)cs1
5. COc1cc(Nc2nc(N)c(-c3nc(-c4cccc(NC(=O)OCc5ccccc5)c4)cs3)s2)cc(OC)c1OC
6. CNC(=O)Nc1nc(N)c(-c2nc(-c3cccc(NC(=O)c4cccc(C)c4)c3)no2)s1
7. COc1cc(Nc2nc(N)c(-c3nc(-c4cccc(NC(=O)c5cccc(C)c5)c4)cs3)s2)cc(OC)c1OC

1. 7.78
2. 8.72
3. 8.54
4. 8.01
5. 8.70
6. 8.72
7. 9.03

---

Assay system: FL-CHK1 (Homo sapiens, UniProt O14757)
Construct: C-terminally His-tagged full-length human CHK1 (FL-CHK1); 6xHis (C); made in house; host or cells: baculovirus/insect cells
Sequence (O14757 whole entry): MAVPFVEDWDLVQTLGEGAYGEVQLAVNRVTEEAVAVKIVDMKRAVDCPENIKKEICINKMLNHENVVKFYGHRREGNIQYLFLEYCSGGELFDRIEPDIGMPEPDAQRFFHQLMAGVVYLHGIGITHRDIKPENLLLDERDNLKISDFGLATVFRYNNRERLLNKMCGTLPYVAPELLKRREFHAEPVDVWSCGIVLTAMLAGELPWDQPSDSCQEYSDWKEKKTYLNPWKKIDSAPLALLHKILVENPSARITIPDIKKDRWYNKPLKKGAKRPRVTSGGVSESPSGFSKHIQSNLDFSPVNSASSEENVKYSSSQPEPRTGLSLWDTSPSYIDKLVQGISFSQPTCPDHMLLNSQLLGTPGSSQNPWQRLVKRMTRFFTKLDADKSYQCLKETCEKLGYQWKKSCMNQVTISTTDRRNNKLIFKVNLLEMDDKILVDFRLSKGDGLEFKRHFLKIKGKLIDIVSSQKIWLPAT
Protocol notes: CHK1 assay
Type: biochemical
Test conditions: 20 μM; combinatorial library compounds
Text: CHK-1 Construct for Assay: C-terminally His-tagged full-length human CHK1 (FL-CHK1) was expressed using the baculovirus/insect cell system. It contains 6 histidine residues (6×His-tag) at the C-terminus of the 476 amino acid human CHK1. The protein was purified by conventional chromatographic techniques. […]
Label MET when inhibition at 20 µM >= 10%; otherwise NOT MET.

Completed entries (count: 2):
# Smiles structure, Group
data = [
    ("Cc1cc(-c2csc(-c3sc(Nc4ccc(C(C)C)cc4)nc3N)n2)c(C)s1", "MET"),
    ("CC(C)c1ccc(Nc2nc(N)c(-c3nc(-c4cc5cc(Cl)ccc5o4)cs3)s2)cc1", "NOT MET"),
]

Could you verify whether the entry "Cc1cc(-c2csc(-c3sc(Nc4ccc(N(C)C)cc4)nc3N)n2)ccc1Cl" shows inhibition at 20 µM of no less than 10%?
MET

Could you verify whether the entry "COc1ccc(OC)c(-c2csc(-c3sc(Nc4ccc(N(C)C)cc4)nc3N)n2)c1" shows inhibition at 20 µM of no less than 10%?
MET

Could you verify whether the entry "Nc1nc(Nc2ccc(S(N)(=O)=O)cc2)sc1-c1nc(-c2c(Cl)cc(C(F)(F)F)cc2Cl)cs1" shows inhibition at 20 µM of no less than 10%?
MET

Could you verify whether the entry "CC(C)c1ccc(Nc2nc(N)c(-c3nc(-c4ccc(C(F)(F)F)cc4)cs3)s2)cc1" shows inhibition at 20 µM of no less than 10%?
NOT MET

Could you verify whether the entry "CCOC(=O)c1ccccc1-c1csc(-c2sc(Nc3ccc(N(C)C)cc3)nc2N)n1" shows inhibition at 20 µM of no less than 10%?
MET

Could you verify whether the entry "COc1ccccc1-c1csc(-c2sc(Nc3ccc(N(C)C)cc3)nc2N)n1" shows inhibition at 20 µM of no less than 10%?
MET
